# Test system: SF-295 CNS
# test-details: NCI-60 one-dose screen, 48 h
# condition-context: 10 µM unless noted
Compounds without any hit were thinned out: in the full panel of roughly 83,000, 20% have a hit. Active and inactive are the calls of the source. Rule for the calls: active = growth percent below 10; inactive = the rest.
Classes used: active, inactive

> print(dat)
                                    compound     class
 1  CC1(C)N=C(N)N=C(N)N1c1cccc(OCCOc2cccc([N+](=O)[O-])c2)c1  inactive
 2                    COC(=O)CCC(=O)c1ccccc1  inactive
 3  Cc1cccc2c(=O)c3c(sc12)c(NCCCN)nc1ccccc13  inactive
 4       Cn1c2ccccc2c2nn(Cc3ccccc3)c(=O)nc21  inactive
 5  Cc1ccc(S(=O)(=O)N2CCc3ccc(O)c4c3C2CCc2ccccc2-4)cc1 (stereo not drawn)  inactive
 6  COc1cccc(OC(=O)c2ccccc2)c1OC(=O)c1ccccc1  inactive
 7  COc1ccc(/C=C2\CN(Cc3cn(CCCNc4ccnc5cc(Cl)ccc45)nn3)C/C(=C\c3ccc(OC)c(OC)c3)C2=O)cc1OC    active
 8          CCN(CC)c1ccc2c(c1)OS(=O)(=O)N=C2  inactive
 9  O=C(NC1CC1)c1cc2n(n1)CC(c1ccccc1)N2 (stereo not drawn)  inactive
10   Nc1nc2c(s1)CCc1c-2c(Br)n(Cc2ccccc2)c1Br  inactive
11  Cc1ccc(S(=O)(=O)c2ccc3[nH]c(=O)[nH]c(=O)c3c2)cc1  inactive
12   COc1cc(C(=O)N(C(C)C)C2CCCCC2)cc(OC)c1OC  inactive
13                    FCOC(C(F)(F)F)C(F)(F)F  inactive
14              Cc1nc2nc(C(F)(F)F)[nH]c2nc1C  inactive
15  COc1cc(/C=N/NC(=O)c2cnn3c2NC(c2ccccc2)C3)ccc1OC1CCCC1 (stereo not drawn)    active
16  Cc1ccc(S(=O)(=O)N2CCc3ccc(O)c4c3C2Cc2cc(Cl)ccc2-4)cc1 (stereo not drawn)  inactive
17  Clc1ccc2c(N3CCN(c4ccnc(NC5CCCCC5)n4)CC3)ccnc2c1  inactive
18  O=C(Nc1ccccc1O)c1ccc(NS(=O)(=O)c2cccc3cccnc23)cc1  inactive
19  C[C@H]1C(=O)C23CCC1C[C@@]21O[C@@H]2C(C)(C)C=CC(=O)C23COC1=O  inactive
20  Cc1nc2cc(Nc3nc(Cl)nc(Nc4ccc(F)cc4)n3)ccc2n1Cc1ccccc1  inactive
21            Oc1cccc(Nc2nc(-c3ccccn3)cs2)c1  inactive
22  C=C1CC[C@@H]2[C@@](C)(CCC[C@]2(C)C(=O)O)[C@@H]1CC[C@H](CO)CCO  inactive
23  COc1ccc(-n2ncc3c4nc(OC)c(S(=O)(=O)c5ccccc5)cc4ccc32)cc1  inactive

====

# Test system: IGROV1 ovarian
# test-details: NCI-60 one-dose screen, 48 h
# condition-context: 10 µM unless noted
The panel holds about 83,000 compounds, 20% with a hit somewhere; the sample as a whole holds those more often. Active and inactive are the calls of the source. The calls were made as follows: active = growth percent below 10; inactive = the rest.
Classes used: label 1 (active), label 0 (inactive)

compound	class
COc1cc(C(F)(F)F)ccc1-c1cc(-c2ccc(F)cc2)n[nH]1	label 0
CCC(C)[C@H]1O[C@]2(CC[C@@H]1C)C[C@@H]1C[C@@H](C/C=C(\C)[C@@H](OC3C[C@H](OC)C(O[C@H]4C[C@H](OC)[C@@H](O)[C@H](C)O4)[C@H](C)O3)[C@@H](C)/C=C/C=C3\CO[C@@H]4[C@H](O)C(C)=C[C@@H](C(=O)O1)[C@]34O)O2 (stereo not given in full)	label 0
CCCCCCCCCCCCCCCC[N+]1(C)CCOCC1	label 1
O=[N+]([O-])c1cc2c(cc1Br)C1C(C3C2C(Cl)(Cl)C(Cl)=C(Cl)C3(Cl)Cl)C(Cl)(Cl)C(Cl)=C(Cl)C1(Cl)Cl (stereo not given)	label 0
ONc1nc(NO)c2[nH]cnc2n1	label 0
COc1cc(Cn2cc(F)c(=O)[nH]c2=O)cc(OC)c1	label 0
C[C@@H](Oc1cc(-c2cnn(C3CC4(CNC4)C3)c2)cnc1N)c1c(Cl)ccc(F)c1Cl	label 0
O=C1NC(=O)C(CSc2ccccc2)(c2ccccc2)N1 (stereo not given)	label 0
CC(C)N1CCN(c2ccc(OC[C@H]3CO[C@](Cn4cncn4)(c4ccc(Cl)cc4Cl)O3)cc2)CC1	label 0
Cc1c(C)n(CC(O)CNC2CCCCC2C)c2ccccc12 (stereo not given)	label 1
O=c1oc2ccccc2cc1-c1csc(N=Nc2c(O)[nH]c3ccc(Br)cc23)n1	label 0
COc1ccc(-n2ncc3c2ccc2cc(S(=O)(=O)c4ccccc4)c(=O)n(C)c23)cc1	label 0
O=C1C(OCCOc2ccccc2)=C(OCCOc2ccccc2)C(=O)c2ccccc21	label 0
O=C1/C(=C/c2ccc([N+](=O)[O-])cc2)Oc2ccc(O)cc21	label 0
COc1cccc(C2C3=C(COC3=O)N(CCO)c3cc4c(cc32)OCO4)c1 (stereo not given)	label 0
CSc1ccc(OC(C)=O)cc1C	label 0
Cc1cc(=O)oc2c1ccc1oc(C(=O)c3ccccc3)c(C)c12	label 0
CC(C)(C)CC(C)(C)N(CSc1ccc(Cl)cc1)CSc1ccc(Cl)cc1	label 1
Cn1c2ccccc2c2nn(C(=O)c3ccccc3)c(=O)nc21	label 0
O=C1CC2c3cc(-c4cc5ccccc5o4)ccc3CCN2C(=O)N1c1ccccc1 (stereo not given)	label 0
